- experimentDescription: qHTS for Inhibitors of human tyrosyl-DNA phosphodiesterase 1 (TDP1): qHTS in cells in presence of CPT; also: nearly all actives have a fitted effect of over 55% in size
- protocolConditions: chicken DT40 Tdp1-/-;hTDP1 cells + 20 nM CPT, ATP luminescence, 48 h; series mostly up to 46.2 µM
In all, about 420,000 compounds went through this assay and about 50,000 (12%) were called active. Another 26% or so got no clear call; they are omitted. Calls follow the shape of the dose curve; as a rule, active = well fitted inhibition curve with a large enough effect; inconclusive = small, poorly fitted or top-dose-only effect; inactive = flat fitted curve, though single readings scatter. This is one part of a sample in which actives are shown more often than they occur.
Choose one outcome from this list and give only that: active, inactive

Example entries begin here.
Cc1occc1C(=O)Nc1cccc(S(=O)(=O)N2CCOCC2)c1    inactive
NC(=O)C1CCN(C(=O)c2cn(-c3ccccc3)nc2-c2cccnc2)CC1    inactive

Challenge: I would be grateful if you could indicate the recorded call for Cc1c(C(=O)NCCN(C)C)oc2ccc(S(=O)(=O)N3CCCC3)cc12 .
Response given: inactive

Challenge: Give the logged outcome of this assay for the following molecule: CCOC(=O)c1ccc(NC(=O)CCn2c(=O)oc3ccccc32)cc1
Response given: inactive

The origin of these recorded values is PubChem BioAssay AID686979.
